Ref: ChEMBL document CHEMBL1157888

system name: D(1A) dopamine receptor (Rattus norvegicus)
Sequence (P18901 whole entry): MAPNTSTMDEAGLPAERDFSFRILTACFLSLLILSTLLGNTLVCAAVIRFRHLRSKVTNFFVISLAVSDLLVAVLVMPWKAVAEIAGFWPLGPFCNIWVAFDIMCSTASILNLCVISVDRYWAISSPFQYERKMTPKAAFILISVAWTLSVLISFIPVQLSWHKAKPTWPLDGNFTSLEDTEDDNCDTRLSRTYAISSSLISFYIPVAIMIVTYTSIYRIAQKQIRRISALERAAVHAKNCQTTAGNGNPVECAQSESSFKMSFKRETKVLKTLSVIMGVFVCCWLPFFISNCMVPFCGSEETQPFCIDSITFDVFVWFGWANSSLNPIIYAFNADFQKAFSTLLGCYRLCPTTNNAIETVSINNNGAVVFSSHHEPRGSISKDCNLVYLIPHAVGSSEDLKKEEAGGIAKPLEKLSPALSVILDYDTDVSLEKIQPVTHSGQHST
assay name: Displacement of [3H]SCH-23390 from dopamine D1 receptor in rat striatum after 15 mins by liquid scintillation counting
Reported Ki values for the following molecules.
metric: Ki

>  <smi>
COc1ccccc1N1CCN(CCCN/C(=N\C#N)c2ccncc2)CC1

>  <metric>
Ki

>  <result>
> 10 µM

$$$$
>  <smi>
N#C/N=C(\NCCCN1CCN(c2cccc(Cl)c2)CC1)c1ccncc1

>  <metric>
Ki

>  <result>
1.63 µM

$$$$
>  <smi>
CCOc1ccccc1N1CCN(CCCN/C(=N\C#N)c2ccncc2)CC1

>  <metric>
Ki

>  <result>
> 10 µM

$$$$
>  <smi>
N#C/N=C(\NCCCN1CCN(c2ccccn2)CC1)c1ccncc1

>  <metric>
Ki

>  <result>
> 10 µM

$$$$
